Provenance of the data: patent US20260042731A1

# Tested on: Amaranthus rudis (AMATA), tall water hemp
# assay-details: Postemergence herbicide evaluation, growth of Amaranthus rudis (AMATA)
# Type: in vivo
# test-parameters: Amaranthus tuberculatus, post-emergence, 168 h, 560 g ae/ha, 7 DAA, percent reduction in plant size relative to untreated control; read-out: Ave. AMATA
assay-endpoint: pest or weed control at 560 g/ha (%)

>>> reported("N/C(=N\\OC(=O)COc1ccc(Cl)cc1Cl)c1ccc(/C(N)=N/OC(=O)COc2ccc(Cl)cc2Cl)cc1 [Compound B5]")
25
>>> reported("N/C(Cc1ccccc1)=N\\OC(=O)COc1ccc(Cl)cc1Cl [Compound A17]")
70
>>> reported("CN(OC(=O)COc1ccc(Cl)cc1Cl)C(=O)c1ccccc1 [Compound A16]")
83
>>> reported("CS/C(C)=N\\OC(=O)COc1ccc(Cl)cc1Cl [Compound A10]")
78
>>> reported("C/C(C/C(C)=N/OC(=O)COc1ccc(Cl)cc1Cl)=N\\OC(=O)COc1ccc(Cl)cc1Cl [Compound B6]")
73
>>> reported("O=C(COc1ccc(Cl)cc1Cl)ON1CCCCC1 [Compound A11]")
75
>>> reported("O=C(COc1ccc(Cl)cc1Cl)ONC(=O)c1ccc(C(=O)NOC(=O)COc2ccc(Cl)cc2Cl)cc1 [Compound B4]")
70
>>> reported("CC(=O)/C(C)=N/OC(=O)COc1ccc(Cl)cc1Cl [Compound A8]")
75
>>> reported("Cn1c(O)c(C(=O)COc2ccc(Cl)cc2Cl)c2ccccc21 [Compound C1]")
0
>>> reported("O=C(COc1ccc(Cl)cc1Cl)NOCc1ccccc1 [Compound D8]")
75
>>> reported("O=C(Cc1ccccc1)NOC(=O)COc1ccc(Cl)cc1Cl [Compound A13]")
70
>>> reported("CN(NC(=O)COc1ccc(Cl)cc1Cl)C(=O)c1ccccc1 [Compound D9]")
68
>>> reported("CCOC(=O)C(=NOC(=O)COc1ccc(Cl)cc1Cl)C(=O)OCC [Compound A7]")
78

* * *

# Test system: Chenopodium album (CHEAL), common lambsquarters
# assay-details: Postemergence herbicide evaluation, growth of Chenopodium album (CHEAL)
# Type: in vivo
# test-parameters: Chenopodium album, post-emergence, 336 h, 280 g ae/ha, 14 DAA, percent reduction in plant size relative to untreated control; read-out: Ave. CHEAL
This section presents compounds with their documented pest or weed control at 280 g/ha values.
assay-endpoint: pest or weed control at 280 g/ha (%)

>>> reported("Cc1cc(OC(=O)COc2ccc(Cl)cc2Cl)n(C)n1 [Compound E6]")
65
>>> reported("CS/C(C)=N\\OC(=O)COc1ccc(Cl)cc1Cl [Compound A10]")
75
>>> reported("C/C(C/C(C)=N/OC(=O)COc1ccc(Cl)cc1Cl)=N\\OC(=O)COc1ccc(Cl)cc1Cl [Compound B6]")
88
>>> reported("N/C(Cc1ccccc1)=N\\OC(=O)COc1ccc(Cl)cc1Cl [Compound A17]")
78

* * *

This section presents molecules with their documented pest or weed control at 280 g/ha values.
# System: Amaranthus rudis (AMATA), tall water hemp
# assay-details: Postemergence herbicide evaluation, growth of Amaranthus rudis (AMATA)
# Format: in vivo
# test-parameters: Amaranthus tuberculatus, post-emergence, 168 h, read-out: Ave. AMATA
assay-endpoint: pest or weed control at 280 g/ha (%)

>>> reported("O=C(COc1ccc(Cl)cc1Cl)Oc1ccc(Cl)cc1 [Compound E5]")
73
>>> reported("O=C(COc1ccc(Cl)cc1Cl)OCCOC(=O)COc1ccc(Cl)cc1Cl [Compound B9]")
72.5
>>> reported("O=C(COc1ccc(Cl)cc1Cl)OCCOCCOCCOC(=O)COc1ccc(Cl)cc1Cl [Compound B13]")
67.5
>>> reported("O=C(COc1ccc(Cl)cc1Cl)Nc1ccc(Cl)cc1 [Compound D6]")
68
>>> reported("O=C(COc1ccc(Cl)cc1Cl)OCCCCCOC(=O)COc1ccc(Cl)cc1Cl [Compound B8]")
84
>>> reported("O=C(COc1ccc(Cl)cc1Cl)OCCOCCOCCOCCOC(=O)COc1ccc(Cl)cc1Cl [Compound B14]")
72.5
>>> reported("O=C(COc1ccc(Cl)cc1Cl)n1cnc2ccccc21 [Compound D4]")
75
